Biological target: KDR (VEGFR2) (Homo sapiens (Human), UniProt P35968)
Sequence (P35968 20-1356): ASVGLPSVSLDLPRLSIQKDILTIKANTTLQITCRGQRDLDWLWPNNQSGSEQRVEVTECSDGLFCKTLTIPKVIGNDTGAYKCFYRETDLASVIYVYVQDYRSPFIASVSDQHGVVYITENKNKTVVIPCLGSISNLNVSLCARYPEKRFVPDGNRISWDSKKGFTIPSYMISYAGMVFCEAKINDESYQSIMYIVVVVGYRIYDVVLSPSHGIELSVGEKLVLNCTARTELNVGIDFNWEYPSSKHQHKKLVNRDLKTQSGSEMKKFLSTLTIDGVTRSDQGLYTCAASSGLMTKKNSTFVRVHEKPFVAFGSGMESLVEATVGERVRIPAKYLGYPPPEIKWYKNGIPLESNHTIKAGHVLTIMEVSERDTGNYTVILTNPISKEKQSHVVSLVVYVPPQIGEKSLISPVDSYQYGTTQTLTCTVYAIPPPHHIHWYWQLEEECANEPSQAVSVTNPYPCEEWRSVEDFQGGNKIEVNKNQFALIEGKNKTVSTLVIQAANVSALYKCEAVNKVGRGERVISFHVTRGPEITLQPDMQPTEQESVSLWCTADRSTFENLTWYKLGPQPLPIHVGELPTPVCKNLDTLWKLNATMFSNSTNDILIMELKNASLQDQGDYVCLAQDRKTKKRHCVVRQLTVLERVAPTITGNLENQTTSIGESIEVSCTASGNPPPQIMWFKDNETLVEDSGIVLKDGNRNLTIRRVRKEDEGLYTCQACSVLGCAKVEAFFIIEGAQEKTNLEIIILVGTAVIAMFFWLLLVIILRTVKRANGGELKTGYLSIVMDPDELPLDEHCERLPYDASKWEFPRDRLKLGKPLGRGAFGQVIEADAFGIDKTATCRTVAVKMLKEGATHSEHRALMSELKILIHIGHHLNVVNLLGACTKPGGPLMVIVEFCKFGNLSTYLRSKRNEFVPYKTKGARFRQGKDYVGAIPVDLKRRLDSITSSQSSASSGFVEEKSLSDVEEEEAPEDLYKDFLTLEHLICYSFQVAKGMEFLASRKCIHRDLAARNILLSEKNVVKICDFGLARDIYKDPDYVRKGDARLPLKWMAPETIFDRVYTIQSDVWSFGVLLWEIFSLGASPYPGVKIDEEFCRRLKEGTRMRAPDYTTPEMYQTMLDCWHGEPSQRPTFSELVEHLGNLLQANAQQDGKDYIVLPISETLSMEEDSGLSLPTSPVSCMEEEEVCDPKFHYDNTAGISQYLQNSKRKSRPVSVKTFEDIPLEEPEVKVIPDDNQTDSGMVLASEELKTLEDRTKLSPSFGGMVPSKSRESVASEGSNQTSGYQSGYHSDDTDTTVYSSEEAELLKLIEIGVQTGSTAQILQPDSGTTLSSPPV
Assay: Z′-LYTE kinase inhibition assay (Invitrogen), KDR
Format: biochemical
Conditions: 1 μM compound, Z′-LYTE method; read-out: % inhibition at 1 μM against KDR
Each record here notes measured inhibition at 1 µM.

>>> print(df.to_string())
                                   molecule  result
0  O=C(Nc1cc(F)cc(C(=O)c2ccc3nccnc3c2)c1)Nc1ccc(Cl)c(Cl)c1 [Compound C069]   < 70%
1  O=C(Nc1ccc(F)c(Cl)c1)Nc1ccc(F)c(C(=O)c2ccc3ncc(N4CCOCC4)nc3c2)c1 [Compound C055]   > 89%
2  O=C(Nc1cccc(F)c1)Nc1cc(F)cc(C(=O)c2ccc3ncc(N4CCOCC4)nc3c2)c1 [Compound C037]   < 70%
3  O=C(Nc1cccc(C(=O)c2ccc3ncc(-c4cccnc4)nc3c2)c1)c1ccc(C(F)(F)F)c(Cl)c1 [Compound C124]   > 89%
4  O=C(Nc1cccc(C(=O)c2ccc3nccnc3c2)c1)c1ccc(C(F)(F)F)c(Cl)c1 [Compound C107]   < 70%

Exercise: Give inhibition at 1 µM for this entry on KDR (VEGFR2) (Homo sapiens (Human), UniProt P35968): O=C(Nc1ccc(Cl)c(F)c1)Nc1ccc(F)c(C(=O)c2ccc3nccnc3c2)c1 [Compound C077]
Solution: < 70%

Exercise: Give inhibition at 1 µM for this entry on KDR (VEGFR2) (Homo sapiens (Human), UniProt P35968): O=C(Nc1cccc(F)c1)Nc1ccc(F)c(C(=O)c2ccc3nccnc3c2)c1 [Compound C013]
Solution: 70 to 89%

Exercise: Give inhibition at 1 µM for this entry on KDR (VEGFR2) (Homo sapiens (Human), UniProt P35968): O=C(Nc1cccc(F)c1)Nc1cccc(C(=O)c2ccc3ncc(N4CCCC4)nc3c2)c1 [Compound C019]
Solution: > 89%

Exercise: Give inhibition at 1 µM for this entry on KDR (VEGFR2) (Homo sapiens (Human), UniProt P35968): O=C(Nc1cncc(F)c1)Nc1ccc(F)c(C(=O)c2ccc3ncc(N4CCOCC4)nc3c2)c1 [Compound C079]
Solution: 70 to 89%

Exercise: Give inhibition at 1 µM for this entry on KDR (VEGFR2) (Homo sapiens (Human), UniProt P35968): O=C(Nc1ccc(F)cc1)Nc1cc(F)c(F)c(C(=O)c2ccc3ncc(N4CCNCC4)nc3c2)c1 [Compound C099]
Solution: 70 to 89%

Exercise: Give inhibition at 1 µM for this entry on KDR (VEGFR2) (Homo sapiens (Human), UniProt P35968): NCCNc1cnc2ccc(C(=O)c3cc(NC(=O)Nc4ccc(F)c(F)c4)ccc3F)cc2n1 [Compound C091]
Solution: > 89%

Exercise: Give inhibition at 1 µM for this entry on KDR (VEGFR2) (Homo sapiens (Human), UniProt P35968): O=C(Nc1cc(F)c(F)c(C(=O)c2ccc3ncc(N4CCOCC4)nc3c2)c1F)c1ccc(Cl)c(C(F)(F)F)c1 [Compound C139]
Solution: < 70%

Exercise: Give inhibition at 1 µM for this entry on KDR (VEGFR2) (Homo sapiens (Human), UniProt P35968): NCCNc1cnc2ccc(C(=O)c3cc(NC(=O)Nc4ccc(F)cc4)ccc3F)cc2n1 [Compound C089]
Solution: > 89%

Exercise: Give inhibition at 1 µM for this entry on KDR (VEGFR2) (Homo sapiens (Human), UniProt P35968): O=C(Nc1cc(F)cc(Cl)c1)Nc1ccc(F)c(C(=O)c2ccc3ncc(N4CCOCC4)nc3c2)c1 [Compound C059]
Solution: 70 to 89%

Exercise: Give inhibition at 1 µM for this entry on KDR (VEGFR2) (Homo sapiens (Human), UniProt P35968): O=C(Nc1ccc(C(F)(F)F)cc1)Nc1cc(F)cc(C(=O)c2ccc3ncc(N4CCOCC4)nc3c2)c1 [Compound C048]
Solution: < 70%

###

Target: BRAF V600E (Homo sapiens (Human), UniProt P15056, V600E)
Sequence (P15056 whole entry V600E): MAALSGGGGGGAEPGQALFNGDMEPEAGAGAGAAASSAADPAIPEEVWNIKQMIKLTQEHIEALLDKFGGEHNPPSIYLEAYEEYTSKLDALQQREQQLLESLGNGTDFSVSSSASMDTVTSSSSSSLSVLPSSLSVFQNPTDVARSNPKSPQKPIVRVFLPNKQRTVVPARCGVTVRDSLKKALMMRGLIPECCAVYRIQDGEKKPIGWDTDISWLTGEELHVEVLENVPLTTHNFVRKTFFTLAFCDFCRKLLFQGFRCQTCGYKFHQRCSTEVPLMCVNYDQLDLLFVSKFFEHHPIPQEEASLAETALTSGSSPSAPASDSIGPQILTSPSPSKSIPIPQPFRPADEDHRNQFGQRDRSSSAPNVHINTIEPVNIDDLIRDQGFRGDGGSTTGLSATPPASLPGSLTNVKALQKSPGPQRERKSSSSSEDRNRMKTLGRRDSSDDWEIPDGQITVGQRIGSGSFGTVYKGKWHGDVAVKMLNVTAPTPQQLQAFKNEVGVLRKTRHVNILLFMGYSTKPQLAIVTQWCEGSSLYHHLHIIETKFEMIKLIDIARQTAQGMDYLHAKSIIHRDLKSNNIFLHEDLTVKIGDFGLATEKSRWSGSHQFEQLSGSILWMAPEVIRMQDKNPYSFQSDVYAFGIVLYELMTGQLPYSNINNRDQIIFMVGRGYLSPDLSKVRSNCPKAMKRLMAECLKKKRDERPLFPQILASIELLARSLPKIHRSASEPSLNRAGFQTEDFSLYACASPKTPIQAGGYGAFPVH
Test: Z′-LYTE kinase inhibition assay (Invitrogen), BRAF V600E
Assay type: biochemical
Details: 1 μM compound, Z′-LYTE method; read-out: % inhibition at 1 μM against BRAF V600E
measured_attribute: inhibition at 1 µM

Solved entries (count: 4):
>>> df
                                   compound     result
0  O=C(Nc1ccc(F)c(C(=O)c2ccc3ncc(N4CCOCC4)nc3c2)c1)c1ccc(Cl)c(C(F)(F)F)c1 [Compound C134]  70 to 89%
1  O=C(Nc1cccc(F)c1)Nc1cc(F)cc(C(=O)c2ccc3ncc(N4CCOCC4)nc3c2)c1 [Compound C037]      > 89%
2  O=C(Nc1cccc(C(F)(F)F)c1)Nc1cc(F)c(F)c(C(=O)c2ccc3ncc(N4CCOCC4)nc3c2)c1 [Compound C040]  70 to 89%
3  O=C(Nc1cccc(C(=O)c2ccc3ncc(N4CCOCC4)nc3c2)c1)Nc1ccc(Cl)c(C(F)(F)F)c1 [Compound C018]      > 89%

Exercise: State its inhibition at 1 µM: O=C(Nc1cc(F)c(F)c(C(=O)c2ccc3nccnc3c2)c1)c1ccc(Cl)c(C(F)(F)F)c1 [Compound C129]
Solution: > 89%

Exercise: State its inhibition at 1 µM: O=C(Nc1cccc(F)c1)Nc1cc(F)c(F)c(C(=O)c2ccc3ncc(N4CCNCC4)nc3c2)c1 [Compound C098]
Solution: > 89%

Exercise: State its inhibition at 1 µM: O=C(Nc1ccc(Cl)cc1)Nc1cc(F)cc(C(=O)c2ccc3ncc(N4CCOCC4)nc3c2)c1 [Compound C045]
Solution: > 89%

###

Each record here notes measured IC50.
System: A375 cells
Assay: Inhibition of cancer cell growth, MTT assay, A375
Type: cell-based
Settings: Homo sapiens, A-375, 72 h exposure

Solved entries (count: 3):
In [3]: df
Out[3]:
                                   molecule           result
0  O=C(Nc1cccc(C(=O)c2ccc3ncc(-c4cn[nH]c4)nc3c2)c1)Nc1ccc(Cl)c(C(F)(F)F)c1 [Compound C029]  1000 to 5000 nM
1  O=C(Nc1cccc(F)c1)Nc1cc(F)c(F)c(C(=O)c2ccc3ncc(N4CCOCC4)nc3c2)c1F [Compound C033]  1000 to 5000 nM
2  O=C(Nc1cccc(C(=O)c2ccc3ncc(N4CCCC4)nc3c2)c1)Nc1cccc(C(F)(F)F)c1 [Compound C020]  1000 to 5000 nM

Exercise: State its IC50: O=C(Nc1cccc(C(=O)c2ccc3ncc(-c4cccnc4)nc3c2)c1)c1ccc(C(F)(F)F)c(Cl)c1 [Compound C124]
Solution: > 5000 nM

###

System: A375 cells
Test: Inhibition of cancer cell growth, MTT assay, A375
Type: cell-based
Details: Homo sapiens, A-375, 72 h exposure
pIC50: −log10 of the molar value.
Each record here notes measured pIC50.

In [3]: df
Out[3]:
                    structure_smiles_string  measured_attribute        result
0  O=C(Nc1ccc(Cl)c(F)c1)Nc1ccc(F)c(C(=O)c2ccc3nccnc3c2)c1               pIC50  5.30 to 6.00
1  O=C(Nc1cccc(C(F)(F)F)c1)Nc1ccc(F)c(C(=O)c2ccc3ncc(N4CCNCC4)nc3c2)c1               pIC50        > 6.00
2  O=C(Nc1cccc(F)c1)Nc1cccc(C(=O)c2ccc3ncc(N4CCCC4)nc3c2)c1               pIC50        < 5.30

Exercise: State its pIC50: "NCCNc1cnc2ccc(C(=O)c3cc(NC(=O)Nc4ccc(F)cc4)ccc3F)cc2n1"
Solution: 5.30 to 6.00

Exercise: State its pIC50: "O=C(Nc1ccc(C(F)(F)F)cc1)Nc1cc(F)cc(C(=O)c2ccc3ncc(N4CCOCC4)nc3c2)c1"
Solution: > 6.00

Exercise: State its pIC50: "O=C(Nc1ccc(F)c(C(=O)c2ccc3ncc(N4CCNCC4)nc3c2)c1)Nc1ccc(Cl)c(C(F)(F)F)c1"
Solution: > 6.00

Exercise: State its pIC50: "O=C(Nc1ccc(Cl)c(C(F)(F)F)c1)Nc1ccc(F)c(C(=O)c2ccc3nccnc3c2)c1F"
Solution: 5.30 to 6.00

###

Test system: A375 cells
Assay: Inhibition of cancer cell growth, MTT assay, A375
Assay type: cell-based
Settings: Homo sapiens, A-375, 72 h exposure
measured_attribute: IC50

                                   compound           result
0  O=C(Nc1cccc(C(=O)c2ccc3ncc(-n4ccnc4)nc3c2)c1)c1ccc(Cl)c(C(F)(F)F)c1 [Compound C132]        < 1000 nM
1  O=C(Nc1cccc(C(F)(F)F)c1)Nc1cc(F)c(F)c(C(=O)c2ccc3nccnc3c2)c1F [Compound C006]        > 5000 nM
2  O=C(Nc1cccc(F)c1)Nc1cc(F)cc(C(=O)c2ccc3nccnc3c2)c1 [Compound C025]        > 5000 nM
3  O=C(Nc1ccc(F)c(F)c1)Nc1ccc(F)c(C(=O)c2ccc3nccnc3c2)c1 [Compound C071]  1000 to 5000 nM
4  NCCNc1cnc2ccc(C(=O)c3cc(NC(=O)Nc4cc(F)cc(F)c4)ccc3F)cc2n1 [Compound C092]  1000 to 5000 nM

Exercise: Give IC50 for this entry on A375 cells: O=C(Nc1ccc(F)cc1)Nc1ccc(F)c(C(=O)c2ccc3ncc(N4CCOCC4)nc3c2)c1 [Compound C053]
Solution: < 1000 nM

Exercise: Give IC50 for this entry on A375 cells: O=C(Nc1ccc(F)c(C(=O)c2ccc3ncc(N4CCOCC4)nc3c2)c1)Nc1ccc(Cl)c(C(F)(F)F)c1 [Compound C030]
Solution: < 1000 nM
